Just for reference, patent US20200055935A1 is where these values come from.

# target_or_test_system: human TIM-3 coupled to Fc (human, UniProt Q8TDQ0 22-200)
# method_summary: SPR; crude periplasmic extract
metric: koff (s⁻¹)
Reply with just the number (in s⁻¹).

// solved cases for koff follow
{"columns": ["binder", "unit", "koff"],
 "data": [
  ["anti-TIM-3 antibody clone 2F4 (antibody, V domains shown) VH: QVQLQQWGAGLLKPSETLSLTCAVYGGSFSGYYWSWIRQPPGKGLEWIGEINHSGSTNYNPSLKSRVTISVDTSKNQFSLKLSSVTAADTAVYYCARGYVAGSDAWGQGTLVTVSS VL: QSVLTQPPSVSAAPGQKVTISCSGSSSNIGNNYVSWYQQLPGTAPKLLIYGNNWRPSGIPDRFSGSKSGTSATLGITGLQTGDEADYYCESWDYDYASGVFGGGTKLTVL", "s⁻¹", 0.00014],
  ["anti-TIM-3 antibody clone 1H9 (antibody, V domains shown) VH: QVQLQQWGAGLLKPSETLSLTCAVYGGSFSGYYWSWIRQPPGKGLEWIGEINHSGSTNYNPSLKSRVTISVDTSKNQFSLKLSSVTAADTAVYYCARGYVAGFDDWGQGTLVTVSS VL: QSVLTQPPSVSAAPGQKVTISCSGSSSNIGNNYVSWYQQLPGTAPKLLIYGNNWRPSGIPDRFSGSKSGTSATLGITGLQTGDEADYYCDSWDSADASGVFGGGTKLTVL", "s⁻¹", "7e-05"],
  ["anti-TIM-3 antibody clone 1D9 (antibody, V domains shown) VH: QVQLQQWGAGLLKPSETLSLTCAVYGGSFSGYYWSWIRQPPGKGLEWIGEINHSGSTNYNPSLKSRVTISVDTSKNQFSLKLSSVTAADTAVYYCARGYYAGDDYWGQGTLVTVSS VL: QSVLTQPPSVSAAPGQKVTISCSGSSSNIGNNYVSWYQQLPGTAPKLLIYGNNWRPSGIPDRFSGSKSGTSATLGITGLQTGDEADYYCEAWDSAYAAGSFGGGTKLTVL", "s⁻¹", 0.00018]
]}

Which koff is listed for anti-TIM-3 antibody clone 1H10 (antibody, V domains shown) VH: QVQLQQWGAGLLKPSETLSLTCAVYGGSFSGYYWSWIRQPPGKGLEWIGEINHSGSTNYNPSLKSRVTISVDTSKNQFSLKLSSVTAADTAVYYCARGYVAGFDSWGQGTLVTVSS VL: QSVLTQPPSVSAAPGQKVTISCSGSSSNIGNNYVSWYQQLPGTAPKLLIYGNNWRPSGIPDRFSGSKSGTSATLGITGLQTGDEADYYCDSWDYDYAAGVFGGGTKLTVL ? 2.3e-05
